assaySummary: Tmax in Sprague-Dawley rat at 100 mg/kg, po measured upto 24 hrs by LC-MS analysis
Assay type: ADME, organism-based
experimentalParameters: in vivo
recordedEndpoint: Tmax (min)
Answer with a number only, understood to be in min.

// recorded Tmax for CON(C)C(=O)Oc1ccccc1C(=O)NCCc1c[nH]c2ccccc12 : 4.8

====

Hi there, I'd appreciate the recorded pIC50 for every entry that follows.
Schema: pIC50 number; meaning minus log10 of the concentration expressed in molar units.

UniProtKB P22303 data for CNC(=O)Oc1ccc2c(c1)[C@]1(C)CCOC1N2C (some centres undefined) ; its pIC50: 8.40

Tested system UniProtKB P22303; pIC50 recorded for CCNC(=O)Oc1ccc2c(c1)[C@]1(C)CCOC1O2 (some centres undefined) was 8.22

Item: CN1c2ccc(OC(=O)NCC3CCCCC3)cc2[C@]2(C)CCN(CCc3ccccc3)[C@H]12 | System: UniProtKB P22303 | pIC50: 8.74

The compound CN1CC[C@@]2(C)c3cc(OC(=O)Nc4ccccc4)ccc3N(C)[C@@H]12 on UniProtKB P22303: pIC50 was 5.81
